Source listed as ChEMBL document CHEMBL3885861.

- Species on record: Rattus norvegicus
- Protocol details: Open TG-GATES - Regimen: Single
- Assay type: toxicity, organism-based, Sprague-Dawley
- Parameters: regimen Single, gender Male, age 6 weeks
- Recorded conditions: in vivo, po, 0 mg/kg, 3 h, tissue Plasma, route gavage, dose level Control
Assay metric: TP (g/dL)
Numbers only; they are read as g/dL.

See these solved cases before continuing.
1) Clc1c(Cl)c(Cl)c(Cl)c(Cl)c1Cl [PERCHLOROBENZENE] : 5.5
2) Cc1cccc(Nc2ccccc2C(=O)O)c1C [MEFENAMIC ACID] : 5.6
3) C1CCC(C(CC2CCCCN2)C2CCCCC2)CC1 (stereo not given) [PERHEXILINE] : 5.7
4) CN1C(C(=O)Nc2ccccn2)=C(O)c2sc(Cl)cc2S1(=O)=O [LORNOXICAM] : 5.5
5) C#C[C@]1(O)CC[C@H]2[C@@H]3CCC4=Cc5oncc5C[C@]4(C)[C@H]3CC[C@@]21C [DANAZOL] : 5.5
6) CCOC(=O)[C@H](CCc1ccccc1)N[C@@H](C)C(=O)N1CCC[C@H]1C(=O)O : 5.3
7) CN(C)[C@@H]1C(O)=C(C(N)=O)C(=O)[C@@]2(O)C(O)=C3C(=O)c4c(O)cccc4[C@@](C)(O)[C@H]3C[C@@H]12 [TETRACYCLINE] : 5.4
8) CC(CN1c2ccccc2Sc2ccccc21)N(C)C (stereo not given) [PROMETHAZINE] : 5.5

Quick note, TP for CC(=O)Nc1nnc(S(N)(=O)=O)s1 [ACETAZOLAMIDE] landed at 5.4

Quick note, TP for COc1cc([C@@H]2c3cc4c(cc3[C@@H](O[C@@H]3O[C@@H]5CO[C@@H](C)O[C@H]5[C@H](O)[C@H]3O)[C@H]3COC(=O)[C@H]23)OCO4)cc(OC)c1O [ETOPOSIDE] landed at 5.2

----------
- Organism: Rattus norvegicus
- Protocol details: Open TG-GATES - Regimen: Single
- Format: toxicity, organism-based, Sprague-Dawley
- Set-up: regimen Single, gender Male, age 6 weeks
- Recorded conditions: in vivo, po, 0 mg/kg, 9 h, tissue Blood, route gavage, dose level Control
Assay metric: Ret
Form entry: enter the amount, then its unit.

See these solved cases before continuing.
1) COc1cc([C@@H]2c3cc4c(cc3[C@@H](O[C@@H]3O[C@@H]5CO[C@@H](C)O[C@H]5[C@H](O)[C@H]3O)[C@H]3COC(=O)[C@H]23)OCO4)cc(OC)c1O [ETOPOSIDE] : 9.1%
2) CC(CN1c2ccccc2Sc2ccccc21)N(C)C (stereo not given) : 8.1%
3) C1CCC(C(CC2CCCCN2)C2CCCCC2)CC1 (stereo not given) : 7.3%
4) CN(C)[C@@H]1C(O)=C(C(N)=O)C(=O)[C@@]2(O)C(O)=C3C(=O)c4c(O)cccc4[C@@](C)(O)[C@H]3C[C@@H]12 : 9.1%

Quick note, Ret for C#C[C@]1(O)CC[C@H]2[C@@H]3CCC4=Cc5oncc5C[C@]4(C)[C@H]3CC[C@@]21C landed at 7.6%

Quick note, Ret for CN1C(C(=O)Nc2ccccn2)=C(O)c2sc(Cl)cc2S1(=O)=O landed at 7.6%

Quick note, Ret for Clc1c(Cl)c(Cl)c(Cl)c(Cl)c1Cl landed at 7%

Quick note, Ret for CC(=O)Nc1nnc(S(N)(=O)=O)s1 [ACETAZOLAMIDE] landed at 8.4%

Quick note, Ret for Cc1cccc(Nc2ccccc2C(=O)O)c1C landed at 7.1%

Quick note, Ret for CCOC(=O)[C@H](CCc1ccccc1)N[C@@H](C)C(=O)N1CCC[C@H]1C(=O)O landed at 8.7%
